Reference source for all entries: PubChem BioAssay (NCATS)

Biological target: Calcium and integrin-binding protein 1 (Homo sapiens)
Assay: Primary qHTS for Identification of Calcium Integrin Binding Protein 1 (CIB1) Competitor (AID 1508620);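 further: GST tagged CIB1 binding a fluorescein labelled alphaIIb integrin peptide tracer; top concentration of the series differs between compounds; on the % scale 0 is the no-effect control and ±100 the full control effect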
Conditions: CIB1-GST / FITC-alphaIIb peptide fluorescence polarization; series mostly up to 114 µM
Results filed as inconclusive are left out. The source made the active and inactive calls. The call rests on the fitted dose curve; in most records, active means well fitted inhibition curve with a large enough effect; inconclusive means small, poorly fitted or top-dose-only effect; inactive means flat fitted curve, though single readings scatter.
measuredQuantity: activity change, negative = inhibition

Reference set, count: 5
[
  {
    "compound": "O=C1OCC(c2ccccc2)=C1Cc1ccccc1",
    "activity change, negative = inhibition": "inactive"
  },
  {
    "compound": "CC(C)(O[C@@H]1O[C@H](CO)[C@@H](O)[C@H](O)[C@H]1O)C(OC(=O)/C=C\\c1ccc(O)cc1)C(=O)OCc1ccc(O[C@@H]2O[C@H](CO)[C@@H](O)[C@H](O)[C@H]2O)cc1 (stereo partly specified)",
    "activity change, negative = inhibition": "inactive"
  },
  {
    "compound": "CC1C(=O)OCC2=CCN3CCC(OC(=O)C(C)(O)C1(C)O)C23 (stereo unspecified)",
    "activity change, negative = inhibition": "inactive"
  },
  {
    "compound": "C[C@@H]1O[C@@H](O[C@H]2[C@H](O)[C@@H](O)[C@H](O[C@H]3[C@H](O[C@H]4CC[C@@]5(C)C(=CC[C@@H]6C5CC[C@]5(C)[C@@H]7[C@H](C[C@@H]65)O[C@]5(CC[C@@](C)(CO[C@@H]6O[C@H](CO)[C@@H](O)[C@H](O)[C@H]6O)O5)[C@H]7C)C4)O[C@H](CO)[C@@H](O)[C@@H]3O)O[C@@H]2CO)[C@H](O)[C@H](O)[C@H]1O (stereo partly specified)",
    "activity change, negative = inhibition": "inactive"
  },
  {
    "compound": "CC1(C)CCC[C@@]2(C)C1[C@H](OC(=O)/C=C/C=C/C(=O)O)C=C1COC(=O)[C@@]12O (stereo partly specified)",
    "activity change, negative = inhibition": "inactive"
  }
]

// compound C=C1CCC2C(C)(C)C(O)CCC2(C)C1CCC(C)CCOC(C)=O (stereo unspecified) , assay Calcium and integrin-binding protein 1 (Homo sapiens), activity change, negative = inhibition value: inactive

###

Test system: NIH3T3
Experiment: Cytotoxic Profiling of Annotated Libraries Using Quantitative High-Throughput Screening (AID 1296008); further: nearly all actives have a fitted effect of over 60% in size; on max response: on the % scale 0 is the no-effect control and ±100 the full control effect
Conditions: Five cell lines viability, CellTiter-Glo ATP luminescence, 48-72 h; stronger effect = lower value
Results filed as inconclusive are left out.
measuredQuantity: max response (%)
Quick reminder: number only, in %, skip the unit.

Reference set, count: 5
[
  {
    "compound": "CC1CCC2C(C)(C)[C@@H](O)CC[C@]2(C)C12Cc1c(O)cc3c(c1O2)CN(C(CCC(=O)O)C(=O)O)C3=O (stereo partly drawn)",
    "measuredQuantity": "max response",
    "recordedMeasurement": -1.29
  },
  {
    "compound": "COc1ccc([C@@]2(O)c3c(ccc(CC=C(C)C)c3O)NC(=O)[C@@H]2OC)cc1",
    "measuredQuantity": "max response",
    "recordedMeasurement": 4.4
  },
  {
    "compound": "CC1(C)[C@@H](O)CC[C@]2(C)[C@H]3CC=C4[C@@H]5C[C@](C)(C(=O)O)CC[C@]5(C)CC[C@@]4(C)[C@]3(C)CC[C@@H]12",
    "measuredQuantity": "max response",
    "recordedMeasurement": 0.034
  },
  {
    "compound": "OC[C@H]1O[C@@H](O[C@H]2[C@H](OCc3ccccc3)O[C@H](CO[C@@H]3OC[C@@H](O)[C@H](O)[C@H]3O)[C@@H](O)[C@@H]2O)[C@H](O)[C@@H](O)[C@@H]1O",
    "measuredQuantity": "max response",
    "recordedMeasurement": -3.84
  },
  {
    "compound": "CCCCC1CCN(CCCC(=O)c2ccccc2C)CC1",
    "measuredQuantity": "max response",
    "recordedMeasurement": -22.9
  }
]

Given item CC(O)(CC(=O)O)CC(=O)OCc1ccc(O[C@@H]2O[C@H](CO)[C@@H](O)[C@H](O)[C@H]2O)cc1 (stereo partly drawn) , the value recorded as its max response is -5.49

Given item CC(C)[C@H]1CC[C@@]2(O)COC(=O)[C@H]2[C@@H]1/C=C(\CO)C(=O)O , the value recorded as its max response is -2.01

Given item CC1C(=O)CC2C3CCC(C(=O)O)C12CC3(C)CO (stereo not drawn) , the value recorded as its max response is -4.76

###

Tested on: HaCat
Assay: Cytotoxic Profiling of Annotated Libraries Using Quantitative High-Throughput Screening (AID 1296008); further: nearly all actives have a fitted effect of over 60% in size
Conditions: Five cell lines viability, CellTiter-Glo ATP luminescence, 48-72 h
Records with an inconclusive call do not appear. Activity calls are given as the source filed them. Calls come from the whole dose curve; as a rule, active = well fitted inhibition curve with a large enough effect; inconclusive = small, poorly fitted or top-dose-only effect; inactive = flat fitted curve, though single readings scatter.
Outcome field: choose from class 1 for active, class 0 for inactive

Call for entry Cc1cc(OCc2nc(-c3ccccc3Cl)cs2)ccc1OCC(=O)O : class 0

Call for entry CC1(C)CCC(C)(C)c2cc(C3(c4ccc(C(=O)O)cc4)OCCO3)ccc21 : class 0

Call for entry O=C(Nc1c(-c2cccs2)nc2ccccn12)c1ccc(Cl)cc1 : class 0

###

System: HEK293
Test: Cytotoxic Profiling of Annotated Libraries Using Quantitative High-Throughput Screening (AID 1296008); further: nearly all actives have a fitted effect of over 60% in size; on max response: on the % scale 0 is the no-effect control and ±100 the full control effect
Conditions: Five cell lines viability, CellTiter-Glo ATP luminescence, 48-72 h; stronger effect = lower value
Experimental: Cell-based phenotypic screening is a commonly used approach to discover biological pathways, novel drug targets, chemical probes and high-quality hit-to-lead molecules. […] A pintool (Kalypsys) was used to transfer 23 nL of compound solution to the 1536-well assay plates. […] Plates were left at room temperature for 10 min before imaging the ATP-coupled luminescence using a ViewLux microplate imager (PerkinElmer, Waltham, MA).
Records with an inconclusive call do not appear.
Reported max response values for a set of compounds
Quick reminder: number only, in %, skip the unit.

[
  {
    "compound": "CC(=O)O[C@H]1CC[C@@]2(C)C(CC[C@@H](C)[C@]23Cc2c(O)cc4c(c2O3)CN([C@@H](CCC(=O)O)C(=O)O)C4=O)C1(C)C (stereo partly specified)",
    "testedTarget": "HEK293",
    "max response, %": -7.36
  },
  {
    "compound": "C=C1CCC2C(C)(C(=O)OC)CCCC2(C)C1CCC(C)CC(=O)O (stereo unspecified)",
    "testedTarget": "HEK293",
    "max response, %": -9.98
  },
  {
    "compound": "COc1cc(O)cc(C)c1C(=O)O[C@H]1[C@@H](OC(C)=O)[C@H](n2ccc(=O)[nH]c2=O)O[C@@H]1CO",
    "testedTarget": "HEK293",
    "max response, %": 4.85
  },
  {
    "compound": "O=c1[nH]ccc2cc(OC3CCNCC3)ccc12",
    "testedTarget": "HEK293",
    "max response, %": -16.8
  },
  {
    "compound": "C=CC1(C)CC(OC(=O)/C(C)=C\\COC(C)=O)C(C(=C)C(=O)O)C(O)C1C(=C)CO (stereo unspecified)",
    "testedTarget": "HEK293",
    "max response, %": -0.348
  },
  {
    "compound": "Cc1nc2ccc(Oc3ccc(F)cc3)cc2c(=O)n1C[C@H]1CCCN(C(C)C)C1",
    "testedTarget": "HEK293",
    "max response, %": -15.9
  }
]

Given item CC(=O)O[C@@H]1CC(C)=C2[C@H]1[C@H](C)CC[C@H]2/C=C(\C)C(=O)O , the value recorded as its max response is -2.45

Given item CCC(Nc1ncnc2nc[nH]c12)c1nc2cccc(F)c2c(=O)n1-c1ccccc1 (stereo unspecified) , the value recorded as its max response is -7.81

Given item CC1(C)CCC2(C(=O)OC3OC(CO)C(O)C(O)C3O)CCC3(C)C(=CCC4C5(C)CCC(O)C(C)(C(=O)O)C5CCC43C)C2C1O (stereo unspecified) , the value recorded as its max response is 4.09

Given item O=S(=O)(Nc1ccccn1)c1ccc(N=Cc2c(O)[nH]c3ccc4ncsc4c23)cc1 , the value recorded as its max response is -3.48

Given item C[C@@H]1CCN(C(=O)N2CCCC2)C[C@@H]1N(C)c1ncnc2[nH]ccc12 , the value recorded as its max response is -16.9

Given item CC1(C)C2CC(OC3OC(COC4OCC(O)(CO)C4O)C(O)C(O)C3O)C1(C)CC2O (stereo unspecified) , the value recorded as its max response is -3.81

Given item CC(=O)O[C@@H]1C[C@@H](OC(C)=O)C(C)(C)/C=C/[C@H](C)[C@H](OC(C)=O)[C@@]2(O)C[C@H](C)[C@H](OC(=O)c3ccccc3)[C@@H]2/C=C/1C , the value recorded as its max response is -1.35

Given item CC(=O)O[C@@H]1[C@@H](OC(=O)/C=C/c2ccccc2)[C@@H](OC(C)=O)[C@H](O[C@H]2[C@@H]3C=CO[C@@H](O[C@@H]4O[C@H](CO)[C@@H](O)[C@H](O)[C@H]4O)[C@@H]3[C@@]3(CO)O[C@@H]23)O[C@H]1C , the value recorded as its max response is -5.93

Given item O=C1NC(=O)C(c2cn(-c3ccccc3)nc2-c2ccc(F)cc2)N1 (stereo unspecified) , the value recorded as its max response is -6.53

Given item CC(C)=CCC(O)/C(C)=C/CO[C@@H]1O[C@H](CO)[C@@H](O)[C@H](O)[C@H]1O (stereo partly specified) , the value recorded as its max response is -0.719
